System: c-Src
Test Description: phosphorylation enrichment, bacterial display (enrichment ratio); higher = better substrate or ligand; peptides without Tyr show the background;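 further: 11-residue human phosphosite peptides and single-mutation variants displayed on the E. coli surface, counted by deep sequencing, each peptide's frequency after selection divided by its frequency in the unselected input library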;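 further: frequency after pTyr selection over input frequency; kinase dosed for 20-30% of maximal phosphorylation in three min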
Could you label it True if measured phosphorylation enrichment is 0.5 or higher, and False otherwise?

Sample answers from the record:
>  <Biopolymer Sequence>
TGDFGYRAPGY [TNS2_Y668]

>  <Assigned Category>
False

$$$$
>  <Biopolymer Sequence>
RGRKVYLEDGF [PRIM2_Y201]

>  <Assigned Category>
True

$$$$
>  <Biopolymer Sequence>
EEQFFYEKAIL [BCCIP_Y257_E254Q]

>  <Assigned Category>
True

$$$$
>  <Biopolymer Sequence>
ASKEPYFVRCI [MYO1D_Y585_YF]

>  <Assigned Category>
True

$$$$
>  <Biopolymer Sequence>
KKRSSYGNSSD [SELENOK_Y52_R50S]

>  <Assigned Category>
True

$$$$

Test whether the sequence SSFDTYHLSRE [KIR3DL2_Y253_I252T_YF] records phosphorylation enrichment of 0.5 or higher.
True

Same question for RRIHSYRGYLW [VHL_Y112_H115Y] please.
True

Quick one: FSNPAYYVLEG [INPPL1_Y986_N982S]
True

Then this sequence: GGPTYYIDTNA [ACTL6A_Y69]
True

// next record ISIFHYAKGQP [MPZ_Y82]
False

Please give the result for HNLDYYKKTTN [FGFR3_Y648] too.
False

----------
Kindly supply the reported phosphorylation enrichment values for the records listed here.
System: c-Abl (mouse)
Test Description: phosphorylation enrichment, bacterial display (enrichment ratio); higher = better substrate or ligand; peptides without Tyr show the background
Give bare numbers.

Check out these entries, answers already filled in.
>  <Biopolymer Sequence>
FTYDPYSEEEP [IL2RB_Y387_D391E]

>  <Recorded Metric>
phosphorylation enrichment

>  <Quantitative Result>
0.915

$$$$
>  <Biopolymer Sequence>
YGTAQYCCRMG [LRRK2_Y2023_I2020T]

>  <Recorded Metric>
phosphorylation enrichment

>  <Quantitative Result>
3.23

$$$$
>  <Biopolymer Sequence>
LEDEVCAQKMK [TPM2_Y261_Y261C]

>  <Recorded Metric>
phosphorylation enrichment

>  <Quantitative Result>
1.2

$$$$
>  <Biopolymer Sequence>
YRRITYHNWRH [PDE6B_Y556]

>  <Recorded Metric>
phosphorylation enrichment

>  <Quantitative Result>
0.53

$$$$
>  <Biopolymer Sequence>
VFGVSYDEFRF [CFTR_Y512_I507V_YF]

>  <Recorded Metric>
phosphorylation enrichment

>  <Quantitative Result>
0.823

$$$$
>  <Biopolymer Sequence>
RAFRHYLLKQK [SCN2A_Y1919_R1918H_YF]

>  <Recorded Metric>
phosphorylation enrichment

>  <Quantitative Result>
1.48

$$$$

Batch of 4 sequences: report phosphorylation enrichment for each.
1. QKTGDYFDLFG [PTPN11_Y62_N58K_YF]
2. KAESWYQTKYE [KRT75_Y342_E337K]
3. NACGLYHKMNG [GATA5_Y216]
4. SVVVPCEPPEV [TP53_Y220_Y220C]

1: 0.815; 2: 0.396; 3: 0.525; 4: 0.834

Provide phosphorylation enrichment for all items below, preserving their order.
1. MQMEEYRGRVE [BTNL2_Y91_W94R]
2. SLIEHYEPSET [PLCD1_Y258_R257H]
3. KHTLSYVDVGT [SDHA_Y629]
4. SSAAGYACLAF [MVD_Y131_YF]

1. 0.458
2. 0.624
3. 0.53
4. 0.946

Field: phosphorylation enrichment. Fill in for each record below.
1. LANNEYFFRVC
2. GNEEAYGRSHI [FAM171B_Y522]
3. KDHPDYKFQRR [SOX10_Y171_P175R_YF]
4. APSEFYDGDHD [HDAC3_Y414_N411S]

0.698
0.706
0.667
0.932

----------
Target System: Jak2 (UniProt O60674)
Sequence (O60674 whole entry, looked up): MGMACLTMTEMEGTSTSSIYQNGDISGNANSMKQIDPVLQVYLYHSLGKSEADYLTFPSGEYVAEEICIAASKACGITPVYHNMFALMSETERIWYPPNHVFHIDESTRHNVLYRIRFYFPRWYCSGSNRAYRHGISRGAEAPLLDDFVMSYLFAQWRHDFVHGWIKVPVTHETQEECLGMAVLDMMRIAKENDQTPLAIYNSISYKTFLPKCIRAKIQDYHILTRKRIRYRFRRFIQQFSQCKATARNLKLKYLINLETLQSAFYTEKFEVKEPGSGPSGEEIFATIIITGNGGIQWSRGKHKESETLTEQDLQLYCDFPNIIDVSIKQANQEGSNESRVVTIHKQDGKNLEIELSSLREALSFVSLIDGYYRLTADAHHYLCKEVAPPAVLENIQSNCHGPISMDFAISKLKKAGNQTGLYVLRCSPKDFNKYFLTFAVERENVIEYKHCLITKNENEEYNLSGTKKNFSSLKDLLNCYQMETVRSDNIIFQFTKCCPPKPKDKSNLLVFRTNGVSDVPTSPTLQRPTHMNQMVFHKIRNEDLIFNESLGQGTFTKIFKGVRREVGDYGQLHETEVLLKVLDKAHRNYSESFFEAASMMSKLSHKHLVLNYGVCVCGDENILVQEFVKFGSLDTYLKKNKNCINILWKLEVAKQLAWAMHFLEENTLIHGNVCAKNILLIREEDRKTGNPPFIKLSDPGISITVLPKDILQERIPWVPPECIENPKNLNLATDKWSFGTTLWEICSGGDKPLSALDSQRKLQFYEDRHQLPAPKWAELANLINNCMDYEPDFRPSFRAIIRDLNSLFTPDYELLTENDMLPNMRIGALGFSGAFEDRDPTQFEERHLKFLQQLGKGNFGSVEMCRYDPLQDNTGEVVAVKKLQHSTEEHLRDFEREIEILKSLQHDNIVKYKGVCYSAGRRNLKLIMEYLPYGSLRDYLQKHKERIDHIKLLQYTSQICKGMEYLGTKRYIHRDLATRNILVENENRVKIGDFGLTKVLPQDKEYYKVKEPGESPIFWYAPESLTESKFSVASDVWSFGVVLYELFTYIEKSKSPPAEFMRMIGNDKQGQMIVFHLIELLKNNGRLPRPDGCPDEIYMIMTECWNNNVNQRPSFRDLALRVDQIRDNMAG
Test Description: phosphorylation enrichment, bacterial display (enrichment ratio); higher = better substrate or ligand; peptides without Tyr show the background
Mark F for phosphorylation enrichment values under 0.7, and T for everything at or above.

Determine whether measured phosphorylation enrichment meets or exceeds 0.7 for RRGTGYTLSLP [MAGEC3_Y152]
F

And what about the sequence FGYPGYQCKHY [TIMP3_Y177_S179C] ?
F

What would you report for EVGHVYLFLQP [ITGA2B_Y360_R358H] ?
T

Would you kindly repeat that for PAIERYVVVCK [RHO_Y136_L131P] ?
T

Proceed to TSQSQYFSFRE [CCDC170_Y323]
T

Check WDSSGYWTPEE [PAPPA2_Y908_C903W] too.
T

Similarly, DRLASYLDKVR [KRT10_Y160] ?
F

----------
Target System: FGFR1 (UniProt P11362)
Sequence (P11362 whole entry, looked up): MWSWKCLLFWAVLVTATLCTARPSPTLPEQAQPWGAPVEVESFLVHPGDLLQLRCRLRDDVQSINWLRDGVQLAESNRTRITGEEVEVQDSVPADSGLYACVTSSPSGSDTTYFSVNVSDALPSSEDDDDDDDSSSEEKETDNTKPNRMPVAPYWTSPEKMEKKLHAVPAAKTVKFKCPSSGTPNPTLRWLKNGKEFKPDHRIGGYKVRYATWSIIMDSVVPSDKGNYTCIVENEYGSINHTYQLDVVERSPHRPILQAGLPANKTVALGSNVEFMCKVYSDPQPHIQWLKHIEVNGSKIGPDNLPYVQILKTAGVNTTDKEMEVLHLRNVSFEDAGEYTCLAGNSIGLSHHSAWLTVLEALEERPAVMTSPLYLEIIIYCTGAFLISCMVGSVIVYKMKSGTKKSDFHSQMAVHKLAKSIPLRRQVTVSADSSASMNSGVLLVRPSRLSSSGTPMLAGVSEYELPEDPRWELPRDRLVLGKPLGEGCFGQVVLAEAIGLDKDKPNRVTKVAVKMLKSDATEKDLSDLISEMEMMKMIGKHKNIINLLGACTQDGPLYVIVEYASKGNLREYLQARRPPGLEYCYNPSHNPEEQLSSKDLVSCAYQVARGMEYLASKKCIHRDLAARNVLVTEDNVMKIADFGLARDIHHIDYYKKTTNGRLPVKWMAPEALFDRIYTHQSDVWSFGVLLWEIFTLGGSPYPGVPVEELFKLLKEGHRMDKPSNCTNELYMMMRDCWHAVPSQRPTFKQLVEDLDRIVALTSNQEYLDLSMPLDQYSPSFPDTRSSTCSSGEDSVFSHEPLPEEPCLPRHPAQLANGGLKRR
Test Description: phosphorylation enrichment, bacterial display (enrichment ratio); higher = better substrate or ligand; peptides without Tyr show the background
Just so you know, the groups by phosphorylation enrichment go like this: lower bin = under 0.5, middle bin = from 0.5 up to 0.6, upper bin = 0.6 and over

Take a look at these entries with their results.
>  <Biopolymer Sequence>
LFIDSYEKDVA [PGM1_Y521_YF]

>  <Assigned Category>
upper bin

$$$$
>  <Biopolymer Sequence>
AAPAAHDAADT [GAMT_Y27_Y27H]

>  <Assigned Category>
lower bin

$$$$
>  <Biopolymer Sequence>
TNRSFYFKPSL [NUP153_Y382_V381F]

>  <Assigned Category>
upper bin

$$$$
>  <Biopolymer Sequence>
SECCKYKIDNL [OSMR_Y689_P694L]

>  <Assigned Category>
lower bin

$$$$
>  <Biopolymer Sequence>
WKKKIYEESST [MOCS2_Y170_E168K]

>  <Assigned Category>
lower bin

$$$$
>  <Biopolymer Sequence>
GEVLVYVEDPA [FLNA_Y319]

>  <Assigned Category>
upper bin

$$$$
>  <Biopolymer Sequence>
ERWLKYFPNEQ [HS3ST5_Y244_I247N]

>  <Assigned Category>
lower bin

$$$$
>  <Biopolymer Sequence>
RHFTGYRIELQ [INSR_Y818]

>  <Assigned Category>
middle bin

$$$$
>  <Biopolymer Sequence>
GLRQGYFVEAQ [APCS_Y142]

>  <Assigned Category>
middle bin

$$$$

Band for the recorded phosphorylation enrichment of RSPLRYISILT [OR51B6_Y130_T131I] ?
upper bin

----------
Target System: MERTK (UniProt Q12866)
Sequence (Q12866 whole entry, looked up): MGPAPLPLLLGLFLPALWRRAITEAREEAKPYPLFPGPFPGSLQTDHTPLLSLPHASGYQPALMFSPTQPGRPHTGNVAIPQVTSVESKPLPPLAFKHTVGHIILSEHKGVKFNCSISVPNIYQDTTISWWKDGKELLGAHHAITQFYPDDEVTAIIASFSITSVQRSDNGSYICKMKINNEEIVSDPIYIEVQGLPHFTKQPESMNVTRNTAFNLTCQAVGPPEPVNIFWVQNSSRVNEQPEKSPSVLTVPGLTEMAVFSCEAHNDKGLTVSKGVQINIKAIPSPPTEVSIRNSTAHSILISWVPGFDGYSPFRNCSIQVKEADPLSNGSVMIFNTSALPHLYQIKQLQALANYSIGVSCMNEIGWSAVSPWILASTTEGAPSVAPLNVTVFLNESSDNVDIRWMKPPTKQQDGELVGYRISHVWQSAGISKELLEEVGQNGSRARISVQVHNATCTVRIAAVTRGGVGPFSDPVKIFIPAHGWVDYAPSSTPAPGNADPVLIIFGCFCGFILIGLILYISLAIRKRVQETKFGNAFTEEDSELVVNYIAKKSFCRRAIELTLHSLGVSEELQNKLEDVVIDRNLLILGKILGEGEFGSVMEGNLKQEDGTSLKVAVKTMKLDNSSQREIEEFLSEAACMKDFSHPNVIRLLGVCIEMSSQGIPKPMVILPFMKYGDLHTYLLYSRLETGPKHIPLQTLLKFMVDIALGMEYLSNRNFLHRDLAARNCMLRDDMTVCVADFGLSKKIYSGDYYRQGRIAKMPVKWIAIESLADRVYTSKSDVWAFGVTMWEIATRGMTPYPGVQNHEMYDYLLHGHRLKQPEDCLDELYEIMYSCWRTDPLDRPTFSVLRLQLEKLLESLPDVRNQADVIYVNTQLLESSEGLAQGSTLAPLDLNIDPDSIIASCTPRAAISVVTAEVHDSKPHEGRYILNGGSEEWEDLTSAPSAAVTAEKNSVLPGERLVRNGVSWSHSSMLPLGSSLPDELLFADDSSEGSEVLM
Test Description: phosphorylation enrichment, bacterial display (enrichment ratio); higher = better substrate or ligand; peptides without Tyr show the background
Would you mind telling me the reported phosphorylation enrichment of each entry?
Numbers only.

For orientation, consider the following solved cases.
>  <Biopolymer Sequence>
ARGTRYRFVSQ [UCN3_Y95_YF]

>  <Quantitative Result>
0.48

$$$$
>  <Biopolymer Sequence>
HHTDECEFDEL [TGM1_Y134_Y134C_YF]

>  <Quantitative Result>
0.471

$$$$
>  <Biopolymer Sequence>
ISITPYPAILH [IFT80_Y588]

>  <Quantitative Result>
0.36

$$$$
>  <Biopolymer Sequence>
SVTCTGSPALN [TP53_Y126_Y126G]

>  <Quantitative Result>
0.385

$$$$
>  <Biopolymer Sequence>
RNIQQYNSFVS [PRKAR1A_Y373]

>  <Quantitative Result>
0.457

$$$$

Give phosphorylation enrichment for each listed item.
1. HDRGNYVQLNM [RECQL4_Y353_R355Q]
2. VQQVIYATRAL [MYH7_Y422_G425R]
3. MPQNEYIELHR [NSA2_Y6]
4. WIPIQDPIISE [NOG_Y222_Y222D]
5. EVKAQNEDIAQ [KRT1_Y358_Y358N]
6. ERSMSYCDESR [SMG1_Y143_S144C]
7. AFPVSYSSSGA [RET_Y687]
8. PADSGYPAFLG [ATP6V1A_Y374_YF]

[0.686, 0.711, 0.338, 0.474, 0.511, 0.43, 0.454, 0.87]

Please report phosphorylation enrichment for every entry that follows.
1. EWLRRYLKNGK [HLA-C_Y195_E197K]
2. TFEFRYLEDRD [CNOT3_Y746_YF]
3. SDGHEYIFVDR [PDGFRB_Y579_P584R_YF]
4. FFRKFCNKSED [RYR1_Y4864_Y4864C]
5. VRALTYCDLHK [KCNH2_Y827]
6. MALDIYRASYY [ALK_Y1278_R1275L]
7. IDFARYWHGDD [MMP11_Y162]

0.581
0.398
0.35
0.518
0.453
0.674
0.536

----------
Target System: Fyn (UniProt P06241)
Sequence (P06241 whole entry, looked up): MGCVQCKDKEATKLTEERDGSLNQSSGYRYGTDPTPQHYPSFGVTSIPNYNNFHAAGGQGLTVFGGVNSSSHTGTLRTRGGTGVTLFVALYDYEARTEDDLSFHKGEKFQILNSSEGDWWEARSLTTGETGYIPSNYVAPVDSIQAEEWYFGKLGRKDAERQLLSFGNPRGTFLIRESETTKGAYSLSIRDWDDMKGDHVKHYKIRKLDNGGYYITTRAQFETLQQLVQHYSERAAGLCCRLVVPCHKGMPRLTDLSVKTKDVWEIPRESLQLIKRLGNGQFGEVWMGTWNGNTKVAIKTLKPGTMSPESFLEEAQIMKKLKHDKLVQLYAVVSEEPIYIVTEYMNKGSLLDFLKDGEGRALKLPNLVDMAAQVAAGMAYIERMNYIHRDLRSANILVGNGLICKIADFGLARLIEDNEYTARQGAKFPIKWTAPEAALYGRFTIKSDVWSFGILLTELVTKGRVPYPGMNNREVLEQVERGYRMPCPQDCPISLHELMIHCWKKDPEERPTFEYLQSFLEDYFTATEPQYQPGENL
Test Description: phosphorylation enrichment, bacterial display (enrichment ratio); higher = better substrate or ligand; peptides without Tyr show the background
Class true: phosphorylation enrichment at least 0.5. Class false: phosphorylation enrichment below 0.5.

Answered examples (5):
>  <Biopolymer Sequence>
GSERRYSREGG [PTPRN2_Y139]

>  <Target System>
Fyn (UniProt P06241)

>  <Assigned Category>
false

$$$$
>  <Biopolymer Sequence>
RLQAAYNLVKR [PFKM_Y103_R100Q]

>  <Target System>
Fyn (UniProt P06241)

>  <Assigned Category>
true

$$$$
>  <Biopolymer Sequence>
AGIENYTSRFG [NKD2_Y256]

>  <Target System>
Fyn (UniProt P06241)

>  <Assigned Category>
false

$$$$
>  <Biopolymer Sequence>
HSKGIYFVQLE [MGAT4B_Y262_Q257H_YF]

>  <Target System>
Fyn (UniProt P06241)

>  <Assigned Category>
true

$$$$
>  <Biopolymer Sequence>
LSQQVYRVNLS [FAT4_Y480_F475L]

>  <Target System>
Fyn (UniProt P06241)

>  <Assigned Category>
true

$$$$

Hi, just wondering whether PQGVGYPPQPQ [EP300_Y2219_Q2223P] shows phosphorylation enrichment of 0.5 or higher.
true

Another sequence to look at: ALAHEYHGGGG [HBB_Y146_K145E]
false

RPDSPYSRPHD [DOK2_Y271] , same question.
false

Same read-out for FGRTFYNQAIM [MCCC2_Y196] ?
false

Entry to check: SLDHPYEKPRK [INAVA_Y333]
false
